Entry source: ChEMBL document CHEMBL1142960

A collection of compounds and their measured MTD
ASSAY PROCEDURE: Toxicity in ip dosed CD1 nude mouse in DMA/PEG
Assay type: organism-based
MEASUREMENT SETUP: in vivo

| COMPOUND | MTD / µmol/kg |
| --- | --- |
| NC(=O)c1cc(N(CCI)CCI)c([N+](=O)[O-])cc1[N+](=O)[O-] | 200 |
| NC(=O)c1cc(N(CCCl)CCCl)c([N+](=O)[O-])cc1[N+](=O)[O-] | 200 |
| O=C(NCCO)c1cc(N(CCCl)CCCl)c([N+](=O)[O-])cc1[N+](=O)[O-] | 133 |
| NC(=O)c1cc(N2CC2)c([N+](=O)[O-])cc1[N+](=O)[O-] [TRETAZICAR] | 200 |
| O=C(NCC(O)CO)c1cc(N(CCCl)CCCl)c([N+](=O)[O-])cc1[N+](=O)[O-] (stereo not given) | 560 |

* * *

Entries annotated with measured MTD
ASSAY PROCEDURE: Toxicity in ip dosed CD1 nude mouse in DMSO/PEG
Assay type: organism-based
MEASUREMENT SETUP: in vivo
MEASURE NAME: MTD (µmol/kg)

| COMPOUND | COMPARISON OPERATOR | MEAS VALUE |
| --- | --- | --- |
| NC(=O)c1cc(N(CCBr)CCBr)c([N+](=O)[O-])cc1[N+](=O)[O-] | > | 1330 |
| O=C(NCC(O)CO)c1cc(N(CCBr)CCBr)c([N+](=O)[O-])cc1[N+](=O)[O-] (stereo unspecified) | = | 1330 |
| CS(=O)(=O)c1cc([N+](=O)[O-])c(C(N)=O)cc1N(CCBr)CCBr | = | 133 |
| O=C(NCCCO)c1cc(N(CCCl)CCCl)c([N+](=O)[O-])cc1[N+](=O)[O-] | = | 178 |
| O=C(NCCCO)c1cc(N(CCBr)CCBr)c([N+](=O)[O-])cc1[N+](=O)[O-] | = | 562 |
| O=C(NCC(O)CO)c1cc(N(CCI)CCI)c([N+](=O)[O-])cc1[N+](=O)[O-] (stereo unspecified) | = | 237 |

* * *

Listed next: entries and their corresponding Activity.
Test system: V79
ASSAY PROCEDURE: Clonogenic survival of 97% V79 NTRoua cells in co-cultures with 3% V79 NTRpuro cells after 5 hrs by MCL assay
Format: functional, Cricetulus griseus

| SMILES STRUCTURE | Activity |
| --- | --- |
| CS(=O)(=O)c1cc([N+](=O)[O-])c(C(N)=O)cc1N(CCBr)CCBr | 16 µM |
| NC(=O)c1cc(N(CCBr)CCBr)c([N+](=O)[O-])cc1[N+](=O)[O-] | 4.6 µM |
| CS(=O)(=O)OCCN(CCCl)c1cc(C(N)=O)c([N+](=O)[O-])cc1[N+](=O)[O-] | 33 µM |
| O=C(NCCO)c1cc(N(CCI)CCI)c([N+](=O)[O-])cc1[N+](=O)[O-] | 10 µM |
| O=C(NCCO)c1cc(N(CCBr)CCBr)c([N+](=O)[O-])cc1[N+](=O)[O-] | 17 µM |

* * *

ASSAY PROCEDURE: Stability in alpha MEM at 37 degC after 24 hrs
Assay type: physicochemical
MEASUREMENT SETUP: read-out: Stability

| COMPOUND | remaining at 24 h / % |
| --- | --- |
| O=C(NCCN1CCOCC1)c1cc(N(CCCl)CCCl)c([N+](=O)[O-])cc1[N+](=O)[O-] | 100 |
| CC(O)CNC(=O)c1cc(N(CCCl)CCCl)c([N+](=O)[O-])cc1[N+](=O)[O-] (centres undefined) | 107 |
| O=C(NCCCN1CCOCC1)c1cc(N(CCCl)CCCl)c([N+](=O)[O-])cc1[N+](=O)[O-] | 96 |
| CS(=O)(=O)OCCN(CCBr)c1cc(C(=O)NCCO)c([N+](=O)[O-])cc1[N+](=O)[O-] | 70 |
| O=C(NCCCCN1CCOCC1)c1cc(N(CCCl)CCCl)c([N+](=O)[O-])cc1[N+](=O)[O-] | 91 |
| COC(=O)CCNC(=O)c1cc(N(CCBr)CCBr)c([N+](=O)[O-])cc1[N+](=O)[O-] | 70 |
| NCCNC(=O)c1cc(N(CCCl)CCCl)c([N+](=O)[O-])cc1[N+](=O)[O-] | 99 |
| O=C(NCCn1ccnc1)c1cc(N(CCCl)CCCl)c([N+](=O)[O-])cc1[N+](=O)[O-] | 94 |
| CS(=O)(=O)OCCN(CCI)c1cc(C(N)=O)c([N+](=O)[O-])cc1[N+](=O)[O-] | 72 |
